Form field: number of animals reacting (one value per entry).
# Test system: awake guinea pig (cholinergically-induced bronchial cramps)
# RUN_DESCRIPTION: inhalative provocation with acetyl-β-methylcholine chloride aerosol on awake guinea pigs (broncholytic/protective action)
# Type: in vivo
# COND: acetyl-β-methylcholine chloride w=0.003160; 10 tested (isoproterenol 9); pre-treatment 3×10^-7 mol ml^-1 kg^-1 i.p.
Structures can show the parent of a compound that is named as a salt.

COMPOUND: O=C(O[C@H]1C[C@H]2CC[C@@H](C1)[N+]21CCCC1)C(O)(c1ccccc1)c1ccccc1 [trospium chloride]
number of animals reacting: 5

COMPOUND: O=C(OC1CC2CCC(C1)[N+]21CC=CC1)C(O)(c1ccccc1)c1ccccc1 (stereo not shown) [dehydrotrospium chloride]
number of animals reacting: 6

COMPOUND: CC(C)NCC(O)c1ccc(O)c(O)c1 (stereo not shown) [isoproterenol, reference compound]
number of animals reacting: 7

COMPOUND: CN1[C@@H]2CC[C@H]1C[C@@H](OC(=O)C(CO)c1ccccc1)C2 (stereo partly shown) [atropine chloride, atropine hydrochloride, reference compound]
number of animals reacting: 5
